Data provenance: patent US20110124842A1

Target: recombinant IgG1(kappa) 4E10
Assay: competitive ELISA: peptide against biotinylated …(biotin)-NH2 (20 nM) for IgG 4E10 (0.2 nM)
pIC50: −log10 of the molar value. Where no end group is shown, it is not given here.

>  <binder>
NWFDITNWLWKKKK-NH2 [peptide 84-1, …-NH2]

>  <pIC50>
7.40

$$$$
